Property: pKi; scope: individual compounds
Target: human histamine H3 receptor (Homo sapiens, UniProt Q9Y5N1)
Construct: expressed in transfected cells
Sequence (Q9Y5N1 whole entry): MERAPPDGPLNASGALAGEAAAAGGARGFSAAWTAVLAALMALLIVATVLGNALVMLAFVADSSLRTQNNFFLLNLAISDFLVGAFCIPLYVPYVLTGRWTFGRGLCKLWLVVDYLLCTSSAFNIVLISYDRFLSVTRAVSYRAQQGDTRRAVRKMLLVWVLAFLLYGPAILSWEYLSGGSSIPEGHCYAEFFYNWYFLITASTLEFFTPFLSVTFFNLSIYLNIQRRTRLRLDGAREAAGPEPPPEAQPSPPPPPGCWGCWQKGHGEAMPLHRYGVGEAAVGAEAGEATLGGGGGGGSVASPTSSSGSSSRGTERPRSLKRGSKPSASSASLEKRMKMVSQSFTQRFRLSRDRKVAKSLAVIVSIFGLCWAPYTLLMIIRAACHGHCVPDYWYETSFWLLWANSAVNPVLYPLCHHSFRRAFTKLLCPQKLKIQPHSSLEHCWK
Assay: functional [35S]GTPγS binding assay (antagonist potency, inhibition of RAMHA-stimulated binding)
Type: biochemical
Details: read-out: [35S]GTPγS binding Ki
Method: CHO-cells, stably expressing the human histamine H3 receptor, were harvested and membranes were prepared by threefold homogenization in a HEPES buffer (20 mM HEPES, 0.1-10 mM EDTA; pH 7.4). […] After 2 h incubation at RT with gentle shaking of the plate, the plate was centrifuged at 370 RCF for 10 min and subsequently the radioactivity was counted in a Packard TopCount-NXT. The IC50 values were calculated by non-linear regression analysis using GraphPad Prism.
Counter-ions that a name gives are not always drawn.
Note on pKi: it is the negative log10 of concentration, concentration in mol/L.

Known results for compounds:
input: Form field - read-out: pKi; system: human histamine H3 receptor (Homo sapiens, UniProt Q9Y5N1); submitted item: COc1ccc2oc(C(=O)N3CCN(CCCN4CCCCC4)CC3)cc2c1 [Compound A13B12]
output: 7.80

input: Form field - read-out: pKi; system: human histamine H3 receptor (Homo sapiens, UniProt Q9Y5N1); submitted item: O=C(c1cccc(Oc2ccccc2)c1)N1CCN(CCCN2CCCCC2)CC1 [Compound A21B12]
output: 7.64

input: Form field - read-out: pKi; system: human histamine H3 receptor (Homo sapiens, UniProt Q9Y5N1); submitted item: O=C(c1cc2ccccc2o1)N1CCN(CCCN2CCCCC2)CC1 [Compound A12B12, dihydrochloride]
output: 7.72

More entries:
input: Form field - read-out: pKi; system: human histamine H3 receptor (Homo sapiens, UniProt Q9Y5N1); submitted item: O=C(c1cc2ccccc2s1)N1CCN(CCCN2CCCCC2)CC1 [Compound A11B12]
output: 7.46

input: Form field - read-out: pKi; system: human histamine H3 receptor (Homo sapiens, UniProt Q9Y5N1); submitted item: O=C(CC1c2ccccc2-c2ccccc21)N1CCN(CCCN2CCCCC2)CC1 [Compound A18B12, dihydrochloride]
output: 8.13
